# tested-on: Fyn (UniProt P06241)
# Sequence (P06241 whole entry, looked up): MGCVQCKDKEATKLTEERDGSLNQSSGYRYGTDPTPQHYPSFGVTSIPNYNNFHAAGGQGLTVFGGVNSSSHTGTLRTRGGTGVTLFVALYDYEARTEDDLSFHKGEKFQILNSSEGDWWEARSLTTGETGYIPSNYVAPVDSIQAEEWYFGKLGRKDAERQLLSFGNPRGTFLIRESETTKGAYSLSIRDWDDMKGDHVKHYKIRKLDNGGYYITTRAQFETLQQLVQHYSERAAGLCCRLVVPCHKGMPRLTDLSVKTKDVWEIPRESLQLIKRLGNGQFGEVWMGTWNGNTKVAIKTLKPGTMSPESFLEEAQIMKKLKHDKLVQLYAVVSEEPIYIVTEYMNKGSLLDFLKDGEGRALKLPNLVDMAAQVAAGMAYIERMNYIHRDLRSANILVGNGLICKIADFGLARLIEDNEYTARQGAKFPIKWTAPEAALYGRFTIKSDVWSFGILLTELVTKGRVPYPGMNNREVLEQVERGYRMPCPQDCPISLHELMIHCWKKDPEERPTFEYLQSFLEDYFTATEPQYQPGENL
# test-summary: phosphorylation enrichment, bacterial display (enrichment ratio); higher = better substrate or ligand; peptides without Tyr show the background;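 note: 11-residue human phosphosite peptides and single-mutation variants displayed on the E. coli surface, counted by deep sequencing, each peptide's frequency after selection divided by its frequency in the unselected input library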;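 note: frequency after pTyr selection over input frequency; kinase dosed for 20-30% of maximal phosphorylation in three min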
Measured phosphorylation enrichment, listed per entry.
Just the number, please, no unit attached.

residue-sequence: SNKLHYQLEQE [PDPR_Y110_Y109H]
readout-value: 0.519
--
residue-sequence: MEFAKYGSLRG [RET_Y809_V804M_YF]
readout-value: 0.456
--
residue-sequence: HSSPVYVGRVV [TGM2_Y219_R214H]
readout-value: 3
--
residue-sequence: RSAGKYDVFFI [MECP2_Y120_L124F_YF]
readout-value: 0.678
--
residue-sequence: EVRTQYEEIAQ [KRT76_Y361_A359T]
readout-value: 0.455
--
residue-sequence: GCRSKYVRLWG [KCNQ1_Y184_G186R]
readout-value: 0.425
--
residue-sequence: RKKEEYKMALY [F8_Y1990]
readout-value: 0.46
--
residue-sequence: KACKHYLTTRT [ZBTB5_Y118]
readout-value: 0.505
--
residue-sequence: EVESPYEVRDF [GIGYF2_Y1168_H1171R_YF]
readout-value: 7.49
--
residue-sequence: FFHCTYKQRMI [CLEC12A_Y242_K244Q_YF]
readout-value: 0.493

Could you now look at the following sequence, please?
Asked: Requested read-out: phosphorylation enrichment. Entry: SVTCTYCPALN [TP53_Y126_S127C]
Given back: 0.545

* * *

# tested-on: Jak2 (UniProt O60674)
# Sequence (O60674 whole entry, looked up): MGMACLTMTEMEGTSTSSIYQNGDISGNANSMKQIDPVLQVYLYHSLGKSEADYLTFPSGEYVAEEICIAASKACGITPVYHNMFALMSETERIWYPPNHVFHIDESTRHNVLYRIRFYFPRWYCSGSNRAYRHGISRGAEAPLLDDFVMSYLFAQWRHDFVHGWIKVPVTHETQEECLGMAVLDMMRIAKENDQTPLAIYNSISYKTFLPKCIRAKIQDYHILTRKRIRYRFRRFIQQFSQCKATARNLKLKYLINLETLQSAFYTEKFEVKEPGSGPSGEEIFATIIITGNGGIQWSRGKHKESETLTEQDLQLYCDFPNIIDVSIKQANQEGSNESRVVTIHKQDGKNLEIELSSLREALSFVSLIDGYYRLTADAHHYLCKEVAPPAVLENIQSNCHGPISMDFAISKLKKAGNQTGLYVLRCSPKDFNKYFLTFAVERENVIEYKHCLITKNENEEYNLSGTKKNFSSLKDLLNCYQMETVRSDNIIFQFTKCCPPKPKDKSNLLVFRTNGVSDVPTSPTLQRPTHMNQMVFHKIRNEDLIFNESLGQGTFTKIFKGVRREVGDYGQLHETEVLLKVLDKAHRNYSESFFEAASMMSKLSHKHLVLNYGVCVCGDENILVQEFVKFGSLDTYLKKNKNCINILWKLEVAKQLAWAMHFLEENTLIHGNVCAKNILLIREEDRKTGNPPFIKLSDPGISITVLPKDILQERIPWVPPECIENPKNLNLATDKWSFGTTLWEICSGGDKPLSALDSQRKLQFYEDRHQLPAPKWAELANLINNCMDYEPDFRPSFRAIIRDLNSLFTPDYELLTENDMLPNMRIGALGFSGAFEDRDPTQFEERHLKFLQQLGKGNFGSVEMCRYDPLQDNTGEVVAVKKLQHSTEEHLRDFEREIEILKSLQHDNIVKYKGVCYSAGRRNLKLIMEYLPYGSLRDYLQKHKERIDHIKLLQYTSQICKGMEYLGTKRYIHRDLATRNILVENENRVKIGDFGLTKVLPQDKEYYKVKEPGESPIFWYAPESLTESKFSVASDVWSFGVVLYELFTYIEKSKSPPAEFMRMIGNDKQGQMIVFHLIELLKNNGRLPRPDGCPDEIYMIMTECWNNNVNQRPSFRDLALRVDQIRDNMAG
# test-summary: phosphorylation enrichment, bacterial display (enrichment ratio); higher = better substrate or ligand; peptides without Tyr show the background
Measured phosphorylation enrichment, listed per entry.
Just the number, please, no unit attached.

Worked examples follow.
residue-sequence: MPLTEYLKRIK [CNGB3_Y200]
readout-value: 0.613
//
residue-sequence: SLIDGYYRLTA [JAK2_Y372]
readout-value: 7.08
//
residue-sequence: ATPSRYMTFLH [DYNC2H1_Y2872]
readout-value: 0.656

Asked: Requested read-out: phosphorylation enrichment. Entry: MALDIYRASYY [ALK_Y1278_R1275L]
Given back: 0.86

Asked: Requested read-out: phosphorylation enrichment. Entry: PHMQTYEVDPN [SDHB_Y61_L65P]
Given back: 1.04

Asked: Requested read-out: phosphorylation enrichment. Entry: EVKAQNEDIAQ [KRT1_Y358_Y358N]
Given back: 0.767

Asked: Requested read-out: phosphorylation enrichment. Entry: ARLEFCENEKK [IRS1_Y47_Y47C_YF]
Given back: 1.02

* * *

# Tested on: Fer (mouse)
# test-summary: phosphorylation enrichment, bacterial display (enrichment ratio); higher = better substrate or ligand; peptides without Tyr show the background
Measured phosphorylation enrichment, listed per entry.
Just the number, please, no unit attached.

residue-sequence: RNNTEYVRDIG [MUSK_Y577_I575T]
attribute-measured: phosphorylation enrichment
readout-value: 0.302

Asked: Provide the documented phosphorylation enrichment with Fer (mouse) as the system for FECKWYIPLTD [BCR_Y756_D752E_YF]
Given back: 0.592

Asked: Provide the documented phosphorylation enrichment with Fer (mouse) as the system for TRSFKCLLLSM [NF1_Y491_Y491C_YF]
Given back: 0.496

Asked: Provide the documented phosphorylation enrichment with Fer (mouse) as the system for LLVVLYKYRCF [PSEN1_Y154_Y159F]
Given back: 0.911

Asked: Provide the documented phosphorylation enrichment with Fer (mouse) as the system for NSNAAYEESHF [LRIF1_Y714_Q716E]
Given back: 0.504

Asked: Provide the documented phosphorylation enrichment with Fer (mouse) as the system for WDLSEYSFKDP [ITGA3_Y237_YF]
Given back: 0.556

Asked: Provide the documented phosphorylation enrichment with Fer (mouse) as the system for SSRKEYFIGGG [GYPC_Y126]
Given back: 0.431

Asked: Provide the documented phosphorylation enrichment with Fer (mouse) as the system for SSENPCATIKD [MEGF10_Y1030_Y1030C]
Given back: 0.445

Asked: Provide the documented phosphorylation enrichment with Fer (mouse) as the system for HVSISYDIPPT [GAB1_Y307]
Given back: 0.732

Asked: Provide the documented phosphorylation enrichment with Fer (mouse) as the system for SKEPFYVHCIK [MYO1D_Y586_R588H_YF]
Given back: 0.467

Asked: Provide the documented phosphorylation enrichment with Fer (mouse) as the system for WRPFGYPRRRR [BCS1L_Y181]
Given back: 0.462
